Molecular target: human recombinant adrenergic α2B receptor (Homo sapiens)
Construct: expressed in transfected cells; host or cells: CHO-K1
Assay: Radioligand binding, adrenergic α2B ([3H]Rauwolscine)
Details: compound at 0.03 μM; [3H]Rauwolscine; repeat assays, each datapoint shown; 0.03 µM
observed.property: Percentage inhibition of ligand binding, Adrenergic α2B (%)

These recorded examples may help you get a feel for the data.
Cc1ccc2c(c1)c1c(n2CC(O)c2ccncc2)CC2CCCN2C1 (single isomer, unassigned) [76d]    91
Cc1ccc2c(c1)c1c(n2CC(O)c2ccncc2)CC2CCCN2C1 (single isomer, unassigned) [76a]    92

[a] COc1ccc(C(O)Cn2c3c(c4cc(C)ccc42)CN(C)CC3)cn1 (stereo not shown) [compound 51]
[b] CN1CCc2c(n(CC(O)c3ccncc3)c3ccc(Cl)cc23)C1 (single isomer, unassigned) [41b]
IN: Which is greater in Percentage inhibition of ligand binding, Adrenergic α2B, the first item a or the second item b ? Response format: the label of the selected entry.
OUT: a

* * *

Target: human recombinant adrenergic α1D receptor (Homo sapiens)
Construct: expressed in transfected cells; host or cells: HEK-293
Sequence (P25100 whole entry): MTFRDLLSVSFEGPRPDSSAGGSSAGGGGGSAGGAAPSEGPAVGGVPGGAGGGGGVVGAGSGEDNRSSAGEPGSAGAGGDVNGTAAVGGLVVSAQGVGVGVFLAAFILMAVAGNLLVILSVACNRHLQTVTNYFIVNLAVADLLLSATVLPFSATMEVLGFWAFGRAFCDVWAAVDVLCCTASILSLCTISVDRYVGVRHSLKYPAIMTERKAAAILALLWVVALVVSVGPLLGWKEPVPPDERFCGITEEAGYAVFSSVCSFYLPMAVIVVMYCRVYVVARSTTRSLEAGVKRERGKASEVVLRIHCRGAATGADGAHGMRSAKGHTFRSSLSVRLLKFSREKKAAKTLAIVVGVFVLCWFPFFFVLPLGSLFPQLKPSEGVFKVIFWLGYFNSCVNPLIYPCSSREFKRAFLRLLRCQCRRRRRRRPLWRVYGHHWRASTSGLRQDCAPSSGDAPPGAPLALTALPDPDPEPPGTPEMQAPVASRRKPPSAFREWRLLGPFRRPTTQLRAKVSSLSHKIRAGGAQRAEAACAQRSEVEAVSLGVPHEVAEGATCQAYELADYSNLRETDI
Assay: Radioligand binding, adrenergic α1D ([3H]Prazosin)
Details: read-out: Percentage inhibition of ligand binding, Adrenergic α1D (0.1 μM), compound at 0.1 μM; [3H]Prazosin; repeat datapoints each shown
observed.property: inhibition at 0.1 µM (%)

CCN1CCc2c(c3cc(C)ccc3n2CCc2ccccc2)C1    18
C/C(=C\n1c2c(c3cc(C)ccc31)CN(C)CC2)c1cnc(N(C)C)nc1    83
C=C(n1ccnc1)n1c2c(c3cc(C)ccc31)CN(C)CC2    7
Cc1ccc(C(C)(O)Cn2c3c(c4cc(Cl)ccc42)CN(C)CC3)cn1 (centres unmarked)    6
C/C(=C\n1c2c(c3cc(C)ccc31)CCN(C)C2)c1ccc(Cl)cc1    26

[a] Cc1ccc2c(c1)c1c(n2C2=C(c3ccncc3)CCC2)CCN(C)C1
[b] Cc1ccc2c(c1)c1c(n2C2=C(c3ccc4c(ccn4C)c3)CCC2)CCN(C)C1
[c] C/C(=C\n1c2c(c3cc(Cl)ccc31)CCN(C)CC2)c1ccccc1F
IN: Reorder the items by inhibition at 0.1 µM, least to greatest. Answer by writing out the labels in the requested order.
OUT: a, c, b

[1] Cc1cnc2c(c1)c1c(n2CCc2ccc(C)nc2)CCN(C)C1
[2] COc1ccc(/C(C)=C/n2c3c(c4cc(C)ccc42)CCN(C)CC3)cc1F
[3] Cc1ccc(CCn2c3c(c4ccc(C(F)(F)F)cc42)CN(C)CC3)cn1
IN: hey, can you rank those compounds up there by inhibition at 0.1 µM? biggest number first please Answer by writing out the labels in the requested order.
OUT: 2, 1, 3

* * *

Target: human recombinant adrenergic α2A receptor (Homo sapiens, UniProt P08913)
Construct: expressed in transfected cells; host or cells: insect Sf9 cells
Sequence (P08913 whole entry): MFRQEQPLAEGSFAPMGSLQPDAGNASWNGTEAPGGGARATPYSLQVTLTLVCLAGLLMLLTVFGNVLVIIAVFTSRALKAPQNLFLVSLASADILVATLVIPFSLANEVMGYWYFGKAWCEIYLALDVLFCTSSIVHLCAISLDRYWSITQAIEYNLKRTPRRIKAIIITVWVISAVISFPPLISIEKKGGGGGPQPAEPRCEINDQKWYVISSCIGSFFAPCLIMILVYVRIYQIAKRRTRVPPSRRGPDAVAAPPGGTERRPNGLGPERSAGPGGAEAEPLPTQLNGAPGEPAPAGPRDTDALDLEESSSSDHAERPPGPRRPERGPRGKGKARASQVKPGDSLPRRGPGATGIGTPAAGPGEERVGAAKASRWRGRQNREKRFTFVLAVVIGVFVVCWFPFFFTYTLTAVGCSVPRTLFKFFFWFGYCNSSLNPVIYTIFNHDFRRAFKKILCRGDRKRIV
Experiment: Radioligand binding, adrenergic α2A ([3H]MK-912)
Conditions: compound at 0.1 μM; [3H]MK-912; repeat assays, each datapoint shown; read-out: Percentage inhibition of ligand binding, Adrenergic α2A
observed.property: inhibition at 0.1 µM (%)

[P] CC(O)(Cn1c2c(c3cc(Cl)cnc31)CNCC2)c1ccncc1 (single isomer, unassigned) [12a]
[Q] Cc1cccc2c3c(n(CC(O)c4ccncc4)c12)CCN(C)C3 (centres unmarked)
[R] CN1CCc2c(c3cc(Cl)ccc3n2CC(C)(O)c2cccnc2)C1 (centres unmarked) [31b]
[S] Cc1ccc2c(c1)c1c(n2CC(O)c2cccnc2)CCN(C)C1 (centres unmarked)
IN: Order the above compounds by increasing inhibition at 0.1 µM. Answer by writing out the labels in the requested order.
OUT: S, P, Q, R

* * *

Target: human recombinant adrenergic α2B receptor (Homo sapiens)
Construct: expressed in transfected cells; host or cells: CHO-K1
Sequence (P18089 1-450): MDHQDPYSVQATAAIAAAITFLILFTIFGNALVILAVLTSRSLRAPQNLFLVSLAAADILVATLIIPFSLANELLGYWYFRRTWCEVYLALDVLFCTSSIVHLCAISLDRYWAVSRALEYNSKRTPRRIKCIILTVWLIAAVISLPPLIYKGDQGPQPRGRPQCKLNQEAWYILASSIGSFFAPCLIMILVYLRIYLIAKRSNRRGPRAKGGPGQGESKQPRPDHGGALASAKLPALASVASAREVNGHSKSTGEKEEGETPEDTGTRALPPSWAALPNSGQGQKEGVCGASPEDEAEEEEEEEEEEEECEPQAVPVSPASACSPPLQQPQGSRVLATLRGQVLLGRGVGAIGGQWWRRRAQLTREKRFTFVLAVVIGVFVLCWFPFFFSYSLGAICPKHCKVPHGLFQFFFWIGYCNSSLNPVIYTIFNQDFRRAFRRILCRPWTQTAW
Experiment: Radioligand binding, adrenergic α2B ([3H]Rauwolscine)
Conditions: 0.1 μM compound; read-out: Percentage inhibition of ligand binding, Adrenergic α2B
observed.property: inhibition at 0.1 µM (%)

These recorded examples may help you get a feel for the data.
Cc1ccc2c(c1)c1c(n2C#Cc2cccc(N(C)C)c2)CCN(C)C1    58
C/C(=C\n1c2c(c3cc(C)ccc31)CN(C)CC2)c1ccc(Cl)c(Cl)c1    105

[A] CN1CCc2c(c3cccnc3n2CCc2ccc(C(F)(F)F)nc2)C1
[B] Cc1ccc2c(c1)c1c(n2C#Cc2ccc(S(N)(=O)=O)s2)CCN(C)C1
[C] Cc1ccc(CCn2c3c(c4c(C)ccc(C)c42)CN(C)CC3)cn1
IN: Reorder the items by inhibition at 0.1 µM, least to greatest. Answer by writing out the labels in the requested order.
OUT: C, A, B

* * *

Biological target: human recombinant adrenergic α2B receptor (Homo sapiens)
Construct: expressed in transfected cells; host or cells: CHO-K1
Sequence (P18089 1-450): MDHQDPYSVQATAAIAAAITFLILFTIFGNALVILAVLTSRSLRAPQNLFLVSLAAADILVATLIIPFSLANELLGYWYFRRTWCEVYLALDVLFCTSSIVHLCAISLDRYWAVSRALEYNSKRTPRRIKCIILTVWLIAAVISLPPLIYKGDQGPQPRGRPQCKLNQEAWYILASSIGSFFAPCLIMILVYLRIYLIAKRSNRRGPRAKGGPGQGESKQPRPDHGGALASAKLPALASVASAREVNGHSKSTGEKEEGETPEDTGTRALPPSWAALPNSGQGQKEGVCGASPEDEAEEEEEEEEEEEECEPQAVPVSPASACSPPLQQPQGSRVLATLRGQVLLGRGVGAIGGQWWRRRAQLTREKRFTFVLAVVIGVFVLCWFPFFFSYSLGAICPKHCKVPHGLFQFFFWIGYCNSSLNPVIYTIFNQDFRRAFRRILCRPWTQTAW
Experiment: Radioligand binding, adrenergic α2B ([3H]Rauwolscine)
Details: compound at 0.03 μM; [3H]Rauwolscine; repeat assays, each datapoint shown; read-out: Percentage inhibition of ligand binding, Adrenergic α2B
observed.property: inhibition at 0.03 µM (%)

These recorded examples may help you get a feel for the data.
Cc1cccc2c3c(n(CC(O)c4ccncc4)c12)CCN(C)C3 (centres unmarked)    79
C/C(=C\n1c2c(c3cc(C)cnc31)CN(C)CC2)c1ccc(C)nc1    67
Cc1ccc2c(c1)c1c(n2CC(O)c2ccc(F)cc2)CN(C)CC1 (single isomer, unassigned) [18a]    54
Cc1ccc2c(c1)c1c(n2CC(C)(O)c2ccc(C)nc2)CCN(C)C1 (centres unmarked) [29b]    46
CN1CCc2c(c3cc(C(F)(F)F)ccc3n2CC(O)c2ccncc2)C1 (centres unmarked)    62

[A] CN1CCc2c(c3cc(Cl)ccc3n2CC(O)c2ccncc2)C1 (single isomer, unassigned)
[B] Cc1ccc2c(c1)c1c(n2CCc2cccnc2)CCN(C)C1
IN: Hey, which is lower on measured inhibition at 0.03 µM, A or B ? Response format: the label of the selected entry.
OUT: B
(B: 65%, A: 99%)

* * *

Target: human recombinant adrenergic α2B receptor (Homo sapiens, UniProt P18089)
Construct: expressed in transfected cells; host or cells: CHO-K1
Sequence (P18089 1-450): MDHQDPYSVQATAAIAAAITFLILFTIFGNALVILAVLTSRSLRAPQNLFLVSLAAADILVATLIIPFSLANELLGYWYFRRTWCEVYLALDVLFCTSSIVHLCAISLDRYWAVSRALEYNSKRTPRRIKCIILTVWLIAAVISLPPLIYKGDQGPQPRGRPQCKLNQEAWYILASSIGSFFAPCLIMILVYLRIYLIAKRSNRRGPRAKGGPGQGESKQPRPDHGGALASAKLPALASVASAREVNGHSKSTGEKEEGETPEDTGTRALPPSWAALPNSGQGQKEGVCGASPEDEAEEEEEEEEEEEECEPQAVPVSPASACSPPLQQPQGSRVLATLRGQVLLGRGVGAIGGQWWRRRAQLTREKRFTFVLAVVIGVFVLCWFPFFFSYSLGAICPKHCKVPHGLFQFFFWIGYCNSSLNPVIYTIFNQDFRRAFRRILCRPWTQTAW
Assay: Radioligand binding, adrenergic α2B ([3H]Rauwolscine)
Conditions: read-out: Ki α2B
observed.property: Ki (nM)

These recorded examples may help you get a feel for the data.
Cc1cnc2c(c1)c1c(n2CCc2cccnc2)CCN2CCCC12 (single isomer, unassigned) [134b]    0.43
Cc1ccc2c(c1)c1c(n2CC(C)(O)c2cnccn2)CCN2CCCC12 (single isomer, unassigned) [176a]    0.53
CN1CCc2c(c3cc(C(F)(F)F)ccc3n2CC(C)(O)c2cccnc2)C1 (single isomer, unassigned) [174a]    7.91
Cc1cnc2c(c1)c1c(n2CC(C)(O)c2ccc(C)nc2)CCN2CCCC12 (single isomer, unassigned) [148b]    0.43

[P] Cc1ccc2c(c1)c1c(n2CC(C)(OC(=O)C(C)(C)C)c2cccnc2)CCN(C)C1 (single isomer, unassigned) [II-16b]
[Q] Cc1cnc2c(c1)c1c(n2CC(C)(O)c2cccnc2)CCN2CCCC12 (single isomer, unassigned) [26b]
[R] Cc1ccc2c(c1)c1c(n2CC(C)(O)c2cccnc2)CNCC1 (single isomer, unassigned) [128a]
IN: Reorder the items by Ki, least to greatest. Answer by writing out the labels in the requested order.
OUT: R, Q, P
(R: 0.97 nM, Q: 3.06 nM, P: 5.58 nM)

All figures here come from patent US8791132B2.
